# System: Escherichia coli
# procedure-text: Antibacterial activity against Escherichia coli MTCC 443 after 24 hrs by agar well diffusion method
# Assay type: functional
# condition-set: MTCC 443, 24 h
endpoint: MIC (µg/mL)

Before answering, review these 6 worked examples.
1) COc1ccc(C2=NN(C(C)=O)C(c3ccc(NC(=S)Nc4ccccc4F)cc3)C2)cc1OC (centres undefined) ... 55
2) COc1ccc(C2=NN(C(C)=O)C(c3ccc(NC(=S)Nc4ccccc4C(F)(F)F)cc3)C2)cc1OC (centres undefined) ... 95
3) COc1ccc(C2=NN(C(C)=O)C(c3ccc(NS(=O)(=O)c4ccc(C(F)(F)F)cc4)cc3)C2)cc1OC (centres undefined) ... 35
4) COc1ccc(C2=NN(C(C)=O)C(c3ccc(NC(=S)Nc4ccc(F)cc4)cc3)C2)cc1OC (centres undefined) ... 80
5) COc1ccc(C2=NN(C(C)=O)C(c3ccc(NC(=O)Nc4ccc(C(F)(F)F)cc4Cl)cc3)C2)cc1OC (centres undefined) ... 45
6) COc1ccc(C(=O)/C=C/c2ccc([N+](=O)[O-])cc2)cc1OC ... 80

A. COc1ccc(C2=NN(C(C)=O)C(c3ccc(NC(=S)Nc4ccc(C#N)cc4)cc3)C2)cc1OC (centres undefined)
B. COc1ccc(C2=NN(C(C)=O)C(c3ccc(NC(=O)Nc4cc(F)ccc4C)cc3)C2)cc1OC (centres undefined)
Query: Which value of MIC is greater, the one for A or the one for B ? // return label of chosen record
Reply: B
